Provenance of the data: patent US12209079B2

biological target: rhTDO (recombinant human TDO) (Homo sapiens); assay: Enzyme assay using rhTDO (rate of kynurenine production); format: biochemical; details: 2 h; final concentration of the compound 10 μM; rate relative to reaction without compound; read-out: rhTDO-mediated kynurenine production
Sequence (P48775 whole entry): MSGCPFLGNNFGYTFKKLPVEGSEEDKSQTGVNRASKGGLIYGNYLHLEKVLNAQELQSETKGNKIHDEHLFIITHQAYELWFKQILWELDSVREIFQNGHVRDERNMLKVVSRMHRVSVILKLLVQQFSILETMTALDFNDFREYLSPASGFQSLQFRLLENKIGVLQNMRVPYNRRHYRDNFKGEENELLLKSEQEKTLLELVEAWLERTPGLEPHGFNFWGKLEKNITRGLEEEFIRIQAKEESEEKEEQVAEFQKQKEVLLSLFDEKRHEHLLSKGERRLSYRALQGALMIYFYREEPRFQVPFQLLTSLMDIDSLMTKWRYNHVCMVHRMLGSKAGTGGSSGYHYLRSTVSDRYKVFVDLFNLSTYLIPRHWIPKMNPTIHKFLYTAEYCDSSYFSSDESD
Structures can show the parent of a compound that is named as a salt.
measured-attribute: remaining activity at 10 µM (%)
Give bare numbers, in %.

| compound | remaining activity at 10 µM [%] |
| --- | --- |
| FC(F)(F)c1cccc(CCN2CN=C(SCc3cc(Cl)c(Cl)cc3CSC3=NCN(CCc4cccc(C(F)(F)F)c4)CN3)NC2)c1 [Compound 152] | 7 |
| COC(=O)c1c(CSC(=N)N)[nH]c2ccccc12 [Compound 32, hydrobromide] | 51 |
| CNC(=O)Cc1ccccc1CSC(=N)N [Compound 62, hydrobromide] | 21 |
| Clc1ccc(Cl)c(CN2CN=C(SCc3ccccc3CSC3=NCN(Cc4cc(Cl)ccc4Cl)CN3)NC2)c1 [Compound 18] | 27 |

// input: 6 compounds below; output: remaining activity at 10 µM for each
1. Clc1ccc(CN2CN=C(SCc3cc(Cl)c(Cl)cc3CSC3=NCN(Cc4ccc(Cl)c(Cl)c4)CN3)NC2)cc1Cl [Compound 56]
2. N#Cc1ccc(CNC(=O)c2ccccc2CSC(=N)N)cc1 [Compound 96, hydrobromide]
3. N/C(=N\c1ccc(F)cc1F)SCc1ccc(F)cc1CS/C(N)=N/c1ccc(F)cc1F [Compound 130, dihydrobromide]
4. Brc1ccc(CCN2CN=C(SCc3ccccc3CSC3=NCN(CCc4ccc(Br)cc4)CN3)NC2)cc1 [Compound 20]
5. C/N=C(\NC)SCc1ccccc1CS/C(=N/C)NC [Compound 8]
6. N=C(N)[Se]Cc1cc(Br)ccc1C(=O)NCC1CC1 [Compound 107, hydrobromide]

1. 35
2. 26
3. 8
4. 44
5. 52
6. 103

// input: 6 compounds below; output: remaining activity at 10 µM for each
1. Cc1ccc(C)c(CCN2CN=C(SCc3ccccc3CSC3=NCN(CCc4cc(C)ccc4C)CN3)NC2)c1 [Compound 24]
2. Fc1ccc(CSC2=NCN(CCc3cccc(C(F)(F)F)c3)CN2)c(CSC2=NCN(CCc3cccc(C(F)(F)F)c3)CN2)c1 [Compound 150]
3. COCCNC(=O)c1ccc(Br)cc1CSC(=N)N [Compound 115, hydrobromide]
4. Clc1ccc(CCN2CN=C(SCc3ccc(Br)cc3CSC3=NCN(CCc4ccc(Cl)c(Cl)c4)CN3)NC2)cc1Cl [Compound 39]
5. N=C(N)SCc1sc2ccccc2c1CSC(=N)N [Compound 151, dihydrobromide]
6. Br.Br.N=C(N)SCc1ccsc1CSC(=N)N [Compound 31, dihydrobromide]

1. 25
2. 11
3. 63
4. 38
5. 11
6. 17
